biological target: Human immunodeficiency virus type 1 reverse transcriptase (Human immunodeficiency virus 1) (UniProt Q72547); assay: Inhibition of biotin-dUTP labeled HIV-1 reverse transcriptase at 100 uM after 30 mins colorimetric streptavidin alkaline phosphatase reporter system
Calls of active or inactive are those of the source. The rule behind the calls is not given here.
parameter: inhibition

molecule | inhibition
CC(C)(C)c1ccc(CSc2nc(Cc3ccccc3)cc(=O)[nH]2)cc1 | inactive
Clc1cc(Cc2ccccc2)nc(SCCc2ccccc2)n1 | inactive
Nc1cc(Cc2ccccc2)nc(SCCCc2ccccc2)n1 | inactive
O=c1cc(Cc2ccccc2)nc(SCc2ccccc2)[nH]1 | inactive
Clc1cc(Cc2ccccc2)nc(SCc2ccc3ccccc3c2)n1 | inactive

// moving on: another record for inhibition
IN: For the molecule shown here, CC(C)(C)c1ccc(CSc2nc(N)cc(Cc3ccccc3)n2)cc1 , give the reported inhibition.
OUT: inactive

---

target: Human immunodeficiency virus type 1 reverse transcriptase (Human immunodeficiency virus 1, UniProt Q72547); test: Inhibition of biotin-dUTP labeled HIV-1 reverse transcriptase after 30 mins colorimetric streptavidin alkaline phosphatase reporter system
parameter: pIC50
pIC50 is defined as minus the log10 of a concentration measured in mol/L.

Worked set:
compound | reading
Cc1cccc(CSc2nc(Cl)cc(Cc3ccccc3)n2)c1 | 4.04
Cc1ccccc1CSc1nc(N)cc(Cc2ccccc2)n1 | 4.52
Nc1cc(Cc2ccccc2)nc(SCc2ccc3ccccc3c2)n1 | 4.77
CC(Sc1nc(N)cc(Cc2ccccc2)n1)c1ccccc1 (stereo not drawn) | 4.19

We now examine a further compound.
IN: Which pIC50 is listed for Cc1cccc(CSc2nc(N)cc(Cc3ccccc3)n2)c1 ?
OUT: 4.74

---

target: Human immunodeficiency virus type 1 reverse transcriptase (Human immunodeficiency virus 1, UniProt Q72547); test: Inhibition of biotin-dUTP labeled HIV-1 reverse transcriptase after 30 mins colorimetric streptavidin alkaline phosphatase reporter system
pIC50: −log10 of the molar value.
parameter: pIC50

structure notation | pIC50
Clc1cc(Cc2ccccc2)nc(SCc2ccccc2)n1 | < 4.00

IN: Fill in: pIC50 of Nc1cc(Cc2ccccc2)nc(SCc2ccccc2)n1 is ___
OUT: < 4.00

IN: Another: COc1cccc(CSc2nc(N)cc(Cc3ccccc3)n2)c1
OUT: < 4.00
